The reported measurements were obtained from patent US20220064276A1.

molecular target: T1, human LTBP3-proTGFβ1 complex (human, UniProt Q9NS15 44-1303; P01137 30-390, limits assumed); assay: Octet BLI, IgG captured
T1 construct: Exemplary entries; also called Hu LTBP3-proTGFβ1; huLTBP3 proTGFb1
T1 sequence (Q9NS15 44-1303 limits assumed, chain 1 of 2): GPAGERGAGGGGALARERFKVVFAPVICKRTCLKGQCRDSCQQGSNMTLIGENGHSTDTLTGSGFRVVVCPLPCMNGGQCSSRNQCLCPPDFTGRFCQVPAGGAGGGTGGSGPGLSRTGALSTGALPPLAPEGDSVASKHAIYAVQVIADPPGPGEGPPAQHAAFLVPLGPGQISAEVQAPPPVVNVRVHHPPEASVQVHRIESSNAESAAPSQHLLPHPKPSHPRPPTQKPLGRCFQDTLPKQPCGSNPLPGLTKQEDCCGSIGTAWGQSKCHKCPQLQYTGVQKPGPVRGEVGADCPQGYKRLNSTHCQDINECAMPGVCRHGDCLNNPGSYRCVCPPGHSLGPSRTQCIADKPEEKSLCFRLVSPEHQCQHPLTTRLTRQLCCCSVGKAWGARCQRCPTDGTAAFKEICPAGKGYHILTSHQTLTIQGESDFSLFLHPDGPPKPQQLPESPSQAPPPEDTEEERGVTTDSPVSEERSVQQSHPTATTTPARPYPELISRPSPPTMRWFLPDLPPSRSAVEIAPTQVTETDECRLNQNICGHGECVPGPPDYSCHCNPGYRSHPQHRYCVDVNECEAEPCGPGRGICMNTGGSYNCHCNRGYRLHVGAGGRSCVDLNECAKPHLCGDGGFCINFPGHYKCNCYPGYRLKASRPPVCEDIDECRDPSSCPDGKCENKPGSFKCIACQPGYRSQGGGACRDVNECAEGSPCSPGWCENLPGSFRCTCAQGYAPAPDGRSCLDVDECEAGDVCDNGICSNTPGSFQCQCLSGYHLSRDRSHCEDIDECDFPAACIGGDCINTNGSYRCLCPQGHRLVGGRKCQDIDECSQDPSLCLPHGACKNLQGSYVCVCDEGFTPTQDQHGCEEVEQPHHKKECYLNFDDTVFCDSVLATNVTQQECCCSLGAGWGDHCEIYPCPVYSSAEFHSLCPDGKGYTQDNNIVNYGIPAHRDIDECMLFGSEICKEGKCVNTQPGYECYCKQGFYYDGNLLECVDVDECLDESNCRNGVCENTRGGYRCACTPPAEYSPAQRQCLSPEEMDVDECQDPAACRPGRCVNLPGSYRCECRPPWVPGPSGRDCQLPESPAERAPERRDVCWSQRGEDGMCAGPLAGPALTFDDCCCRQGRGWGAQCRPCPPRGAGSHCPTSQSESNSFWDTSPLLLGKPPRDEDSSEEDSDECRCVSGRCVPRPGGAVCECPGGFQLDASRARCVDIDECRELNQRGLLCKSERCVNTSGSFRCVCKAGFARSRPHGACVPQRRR
T1 sequence (P01137 30-390 limits assumed, chain 2 of 2): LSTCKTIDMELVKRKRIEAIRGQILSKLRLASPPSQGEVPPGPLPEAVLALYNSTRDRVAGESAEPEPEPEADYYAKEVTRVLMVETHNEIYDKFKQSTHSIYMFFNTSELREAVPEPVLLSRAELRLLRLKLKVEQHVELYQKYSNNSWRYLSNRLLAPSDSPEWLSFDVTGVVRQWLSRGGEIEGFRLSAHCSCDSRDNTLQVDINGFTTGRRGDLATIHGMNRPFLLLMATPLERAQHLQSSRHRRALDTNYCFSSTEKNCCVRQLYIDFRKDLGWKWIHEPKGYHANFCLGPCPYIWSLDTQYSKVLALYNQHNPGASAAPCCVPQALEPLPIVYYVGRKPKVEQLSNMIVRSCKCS
PROPERTY LABEL: kon (M⁻¹ s⁻¹)

binder="SR-AB62 (antibody, IgG1, V domains shown, Cycle 3, lineage SR-AB24) VH: QLQLQESGPGLAKPSETLSLTCTVSGGSIRSSSYYWGWIRQPPGKGLEWIGSISYSATTYYNPSLKSRVTISVDTSKNQFSLKLSSVTAADTAVYYCASDPSYDSAAGMDVWGQGTTVTVSS VL: DIQMTQSPSSLSASVGDRVTITCRASKVISSYLNWYQQKPGKAPKLLIYYASSLQSGVPSRFSGSGSGTDFTLTISSLQPEDFATYYCQQSNDWPFTFGGGTKVEIK" property_label=kon scale_unit="M⁻¹ s⁻¹" result=203000
binder="SR-AB40 (antibody, IgG1, V domains shown, Cycle 3, lineage SR-AB23) VH: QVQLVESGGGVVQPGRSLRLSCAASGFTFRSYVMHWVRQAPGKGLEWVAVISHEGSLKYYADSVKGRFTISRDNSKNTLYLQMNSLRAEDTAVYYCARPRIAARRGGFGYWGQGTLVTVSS VL: NFMLTQPHSVSESPGKTVTISCTRSSGNIDNNYVQWYQQRPGSSPTTVIYEDNQRPSGVPDRFSGSIDSSSNSASLTISGLKTEDEADYYCQSYDYSNQGVVFGGGTKLTVL" property_label=kon scale_unit="M⁻¹ s⁻¹" result=182000
